Biological target: SARS-HCoV antigen(s) of unknown identity (purified whole virus, infected Vero cell lysate or infected Vero cells)
Experiment: ELISA, OD on native virus against OD on heat-denatured virus
assay.metric: O.D. Reduction, Fold (fold)
Answers are plain numbers, in fold.

F26G3 (antibody, V domains shown) VH: EVRLQQSGPELVKPGASVKISCKTSGYTFTEYTMHWVKQSHGKNLEWIGGINPNNGGTTYNQKFKGKATLTVDKSSNTAYMELRSLTSEDSAVYYCSRGDYGTSYGYFDVWGAGTTVTVSS VL: DILMTQSPTSFAVSLGQRATISCRTSQSVSTSSYSYMHWYQQKPGQPPKLLIKYASNLESGVPARFSGSGSGSDFTLNIHPVEEGDTATYYCQHSWEIPCAFGGGTKLEIKR    4.5
F26G9 (antibody, V domains shown) VH: VQLLESGTVLARPGASVKMSCKASGYSFTSYWMHWVKQRPGQGLEWIGAIYPGNSDTSYNQKFKGKAKLTAVTSASTAYMELSSLTNEDSAVYYCTRSVYYGYGYFDVWGAGTTVTVSS VL: DILMTQSHKCMSTSVGDRVSITCKASQDVSTAVVWYQQKPGQFPKLLIYWASTRHTGVPDRFTGSGSGTDYTLTISSVQAEDLALYYCQQHYTTPYTFGGGTKLEIKR    4.8
F26G7 (antibody, V domains shown) VH: VELLESGTVLARPGASVKMSCEASGYTFTTYWMHWIKQRPGQGLEWIGAIYPGNSDTTYNQKFKGKAKLTAVTSTSTAYMELSSLTNEDSAVYYCTREGIPQLLRTMDYWGQGTSVTVSS VL: ELVMTQSPSSLSASLGERVSLTCRASQEISGYLSWLQQKPDGTIKRLIYAASTLDSGVPKRFSGSRSGSDYSLTISSLESEDFADYYCLQYISYPWTFGGGTKLEIKR    5

Query string: What value of O.D. Reduction, Fold has been reported for the following binder? F26G10 (antibody, V domains shown) VH: EVQLEESGTVLARPGASVKMSCKASGYSFTSYWMHWVKQRPGQGLDWIGAIYPENSDTSYNQKFKGKAKLTAVTSASTAYMEHSSLTNEDSAVYYCTRSVYYGYGYFDVWGAGTTVTVSS VL: DILMTQSHKFMSTSVGDRVSITCKASQDVSTAVAWYQQKPGQSPKLLIYWASTRHTGVPDRFTGSGSGTDYTLTISSVQAEDLALYYCQQHYSTPYTFGGGTKLEIKR
Result string: 4.3
